- TARGET_OR_TEST_SYSTEM: AR (Homo sapiens, UniProt P10275)
- Sequence (P10275 whole entry, looked up): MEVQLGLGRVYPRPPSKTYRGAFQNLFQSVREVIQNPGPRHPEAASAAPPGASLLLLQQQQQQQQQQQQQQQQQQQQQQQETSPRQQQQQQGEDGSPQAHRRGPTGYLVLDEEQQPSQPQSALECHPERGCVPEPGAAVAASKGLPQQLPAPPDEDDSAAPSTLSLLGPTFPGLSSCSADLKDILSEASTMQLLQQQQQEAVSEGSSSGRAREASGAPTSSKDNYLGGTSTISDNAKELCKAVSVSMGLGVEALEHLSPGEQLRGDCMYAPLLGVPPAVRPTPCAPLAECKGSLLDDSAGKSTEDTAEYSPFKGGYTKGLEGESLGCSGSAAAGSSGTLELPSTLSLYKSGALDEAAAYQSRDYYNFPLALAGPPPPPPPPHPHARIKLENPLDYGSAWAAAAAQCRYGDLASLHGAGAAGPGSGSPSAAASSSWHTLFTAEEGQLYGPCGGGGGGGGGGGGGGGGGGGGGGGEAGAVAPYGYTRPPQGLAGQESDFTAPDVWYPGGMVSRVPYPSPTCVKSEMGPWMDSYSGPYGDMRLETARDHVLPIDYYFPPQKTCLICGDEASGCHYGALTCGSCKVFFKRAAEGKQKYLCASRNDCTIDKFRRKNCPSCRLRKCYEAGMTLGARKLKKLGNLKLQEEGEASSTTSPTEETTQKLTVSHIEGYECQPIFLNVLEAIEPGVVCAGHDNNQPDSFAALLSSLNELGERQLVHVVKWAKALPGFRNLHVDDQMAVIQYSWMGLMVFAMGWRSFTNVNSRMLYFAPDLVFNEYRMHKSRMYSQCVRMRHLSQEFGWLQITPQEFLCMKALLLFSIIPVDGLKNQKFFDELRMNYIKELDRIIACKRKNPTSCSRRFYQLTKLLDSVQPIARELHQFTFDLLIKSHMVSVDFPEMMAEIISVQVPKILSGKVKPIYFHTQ
- METHOD_NOTES: cell-based
- Assay type: cell-based
- TEST_CONTEXT: LNCaP, read-out: Fold induction of endogenous PSA, 1 μM
The following compounds are shown together with reported fold induction at 1 µM values.
PROPERTY_MEASURED: fold induction at 1 µM

# COMPOUND, PROPERTY_MEASURED, RECORDED_NUMBER
records = [
    ("CC1(C)C(=O)N(c2ccc(C#N)c(C(F)(F)F)c2)C(=S)N1CCCCO [RU 59063, reference compound]", "fold induction at 1 µM", 11.5),
    ("Cc1ccc(N2C(=S)N(c3ccc(C#N)c(C(F)(F)F)c3)C(=NC(=S)Nc3ccc(C#N)c(C(F)(F)F)c3)C23CCC3)cc1", "fold induction at 1 µM", 1.3),
    ("CN1C(=S)N(c2ccc(C#N)c(C(F)(F)F)c2)C(=O)C12CCCC2 [RD75, reference compound]", "fold induction at 1 µM", 18.2),
    ("CCNC(=S)N=C1N(c2ccc(C#N)c(C(F)(F)F)c2)C(=S)N(c2ccc(C)cc2)C1(C)C", "fold induction at 1 µM", 1.3),
]

====

- TARGET_OR_TEST_SYSTEM: UniProtKB P10275
- METHOD_NOTES: cell-based
- Assay type: cell-based
- TEST_CONTEXT: LNCaP, read-out: Fold induction of endogenous PSA, 0.1 μM
PROPERTY_MEASURED: fold induction at 0.1 µM

# COMPOUND, PROPERTY_MEASURED, RECORDED_NUMBER
measured = [
    ("Cc1ccc(N2C(=S)N(c3ccc(C#N)c(C(F)(F)F)c3)C(=NC(=S)Nc3ccc(C#N)c(C(F)(F)F)c3)C23CCC3)cc1", "fold induction at 0.1 µM", 1.44),
    ("CN1C(=S)N(c2ccc(C#N)c(C(F)(F)F)c2)C(=O)C12CCCC2 [RD75, reference compound]", "fold induction at 0.1 µM", 8.13),
    ("CC1(C)C(=O)N(c2ccc(C#N)c(C(F)(F)F)c2)C(=S)N1CCCCO [RU 59063, reference compound]", "fold induction at 0.1 µM", 6.88),
    ("Cc1ccc(N2C(=S)N(c3ccc(C#N)c(C(F)(F)F)c3)C(=O)C23CCC3)cc1", "fold induction at 0.1 µM", 1.25),
    ("Cc1ccc(N2C(=S)N(c3ccc(C#N)c(C(F)(F)F)c3)C(=NC(=S)Nc3ccccc3)C23CCC3)cc1", "fold induction at 0.1 µM", 1.31),
    ("CN1C(=O)N(c2ccc(C#N)c(C(F)(F)F)c2)C(=O)C12CCC2 [RD74, reference compound]", "fold induction at 0.1 µM", 7.5),
    ("CN1C(=S)N(c2ccc(C#N)c(C(F)(F)F)c2)C(=O)C12CCC2 [RD73, reference compound]", "fold induction at 0.1 µM", 6.25),
    ("CCNC(=S)N=C1N(c2ccc(C#N)c(C(F)(F)F)c2)C(=S)N(c2ccc(C)cc2)C1(C)C", "fold induction at 0.1 µM", 1.06),
]

====

- TARGET_OR_TEST_SYSTEM: AR (Homo sapiens, UniProt P10275)
- METHOD_NOTES: cell-based
- Assay type: cell-based
- TEST_CONTEXT: doses of 100, 200, 500 and 1000 nM

# COMPOUND, PSA levels of LN-AR cells (FIG. 21)
measured = [
    ("N#CCCCc1ccc(N2C(=S)N(c3ccc(C#N)c(C(F)(F)F)c3)C(=O)C23CCC3)cc1 [RD170]", "decreased"),
    ("CNC(=O)c1ccc(N2C(=S)N(c3ccc(C#N)c(C(F)(F)F)c3)C(=O)C23CCC3)cc1F [RD162]", "decreased"),
    ("CNC(=O)c1ccc(N2C(=S)N(c3ccc(C#N)c(C(F)(F)F)c3)C(=O)C23CCCC3)cc1F [RD162″]", "decreased"),
    ("CN(C)C(=O)CCCc1ccc(N2C(=S)N(c3ccc(C#N)c(C(F)(F)F)c3)C(=O)C23CCC3)cc1 [RD169]", "decreased"),
]
